Measurement Target: human α4β2 AChRs (Homo sapiens, UniProt P17787+P43681)
Construct: expressed in transfected cells
Sequence (P43681 29-627 limits assumed): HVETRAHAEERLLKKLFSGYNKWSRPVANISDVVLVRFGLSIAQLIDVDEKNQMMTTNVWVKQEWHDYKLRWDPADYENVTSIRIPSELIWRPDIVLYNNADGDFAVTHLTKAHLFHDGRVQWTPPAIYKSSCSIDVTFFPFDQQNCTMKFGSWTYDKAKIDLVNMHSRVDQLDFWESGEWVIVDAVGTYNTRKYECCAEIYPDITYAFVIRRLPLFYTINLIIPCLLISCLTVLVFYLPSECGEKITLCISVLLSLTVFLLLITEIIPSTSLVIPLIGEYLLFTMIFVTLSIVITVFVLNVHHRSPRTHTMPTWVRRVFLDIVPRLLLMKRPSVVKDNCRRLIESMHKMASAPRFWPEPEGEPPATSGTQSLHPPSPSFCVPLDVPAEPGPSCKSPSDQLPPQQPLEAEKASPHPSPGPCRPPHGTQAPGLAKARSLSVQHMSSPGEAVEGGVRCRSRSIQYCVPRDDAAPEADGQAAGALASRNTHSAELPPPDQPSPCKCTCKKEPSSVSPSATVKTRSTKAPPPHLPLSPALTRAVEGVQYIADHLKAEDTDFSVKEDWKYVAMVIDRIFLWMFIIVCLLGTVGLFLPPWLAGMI
Sequence (P17787 26-502): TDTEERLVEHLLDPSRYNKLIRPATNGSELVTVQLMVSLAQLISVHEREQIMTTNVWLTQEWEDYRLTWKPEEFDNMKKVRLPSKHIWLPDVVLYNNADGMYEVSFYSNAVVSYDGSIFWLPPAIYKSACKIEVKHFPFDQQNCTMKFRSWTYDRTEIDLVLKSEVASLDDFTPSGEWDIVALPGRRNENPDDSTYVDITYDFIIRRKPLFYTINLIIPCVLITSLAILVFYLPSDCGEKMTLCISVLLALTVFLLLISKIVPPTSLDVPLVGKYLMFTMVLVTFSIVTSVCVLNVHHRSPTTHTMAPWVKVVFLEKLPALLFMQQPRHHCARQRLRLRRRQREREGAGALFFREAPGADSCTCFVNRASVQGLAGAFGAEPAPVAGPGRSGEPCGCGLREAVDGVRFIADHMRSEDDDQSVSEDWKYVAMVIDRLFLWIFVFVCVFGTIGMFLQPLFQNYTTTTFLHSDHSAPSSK
Test Details: Chronic desensitization (16 h agonist, then ACh response) and calculated smoldering activation, α4β2 cell line
Type: cell-based
Conditions Used: Desensitization IC50, α4β2: 100 µM ACh, overnight agonist; second component
Quantity Kind: pIC50
// pIC50 is dimensionless: -log10 of concentration (M)

Retrieve pIC50 measured for O=c1cccc2n1C[C@@H]1CNC[C@H]2C1 [Cytisine, cytisine] and print it.
4.70

---

Measurement Target: α3β4 AChRs (Homo sapiens, UniProt P30926+P32297)
Construct: expressed in transfected cells
Sequence (P32297 32-505): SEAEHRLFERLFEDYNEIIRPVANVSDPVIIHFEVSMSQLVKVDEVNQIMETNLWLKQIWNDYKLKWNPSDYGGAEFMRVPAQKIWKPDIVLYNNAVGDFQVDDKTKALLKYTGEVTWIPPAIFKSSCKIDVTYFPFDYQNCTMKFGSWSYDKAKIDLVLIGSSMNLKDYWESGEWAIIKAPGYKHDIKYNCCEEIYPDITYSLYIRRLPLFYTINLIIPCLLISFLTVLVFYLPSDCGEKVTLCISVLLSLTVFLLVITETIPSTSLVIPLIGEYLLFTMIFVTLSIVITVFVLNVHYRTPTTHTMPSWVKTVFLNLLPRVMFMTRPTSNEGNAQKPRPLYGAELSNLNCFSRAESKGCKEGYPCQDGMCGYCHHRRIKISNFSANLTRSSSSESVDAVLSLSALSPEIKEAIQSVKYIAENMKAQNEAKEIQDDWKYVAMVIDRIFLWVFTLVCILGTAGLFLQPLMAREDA
Sequence (P30926 22-498): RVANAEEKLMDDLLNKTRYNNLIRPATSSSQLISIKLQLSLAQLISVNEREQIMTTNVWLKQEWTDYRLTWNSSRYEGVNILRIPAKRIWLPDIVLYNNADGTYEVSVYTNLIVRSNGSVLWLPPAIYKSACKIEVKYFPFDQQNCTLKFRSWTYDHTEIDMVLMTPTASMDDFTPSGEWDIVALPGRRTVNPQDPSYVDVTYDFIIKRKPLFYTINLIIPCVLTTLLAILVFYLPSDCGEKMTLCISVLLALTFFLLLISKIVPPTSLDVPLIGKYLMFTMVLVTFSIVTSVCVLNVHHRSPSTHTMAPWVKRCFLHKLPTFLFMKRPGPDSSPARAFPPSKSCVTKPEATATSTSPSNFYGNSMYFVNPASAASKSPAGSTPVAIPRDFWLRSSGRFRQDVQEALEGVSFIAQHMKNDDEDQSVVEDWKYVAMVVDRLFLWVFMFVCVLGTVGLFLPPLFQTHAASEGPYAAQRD
Test Details: Chronic desensitization (16 h agonist, then ACh response) and calculated smoldering activation, α3β4 cell line
Assay type: cell-based
Quantity Kind: IC50 (µM)
Number only, in µM; omit the unit.

Retrieve IC50 measured for O=c1cccc2n1C[C@@H]1CNC[C@H]2C1 [Cytisine, cytisine] and print it.
1.3

---

Measurement Target: α7 AChRs (Homo sapiens, UniProt P36544)
Sequence (P36544 23-502): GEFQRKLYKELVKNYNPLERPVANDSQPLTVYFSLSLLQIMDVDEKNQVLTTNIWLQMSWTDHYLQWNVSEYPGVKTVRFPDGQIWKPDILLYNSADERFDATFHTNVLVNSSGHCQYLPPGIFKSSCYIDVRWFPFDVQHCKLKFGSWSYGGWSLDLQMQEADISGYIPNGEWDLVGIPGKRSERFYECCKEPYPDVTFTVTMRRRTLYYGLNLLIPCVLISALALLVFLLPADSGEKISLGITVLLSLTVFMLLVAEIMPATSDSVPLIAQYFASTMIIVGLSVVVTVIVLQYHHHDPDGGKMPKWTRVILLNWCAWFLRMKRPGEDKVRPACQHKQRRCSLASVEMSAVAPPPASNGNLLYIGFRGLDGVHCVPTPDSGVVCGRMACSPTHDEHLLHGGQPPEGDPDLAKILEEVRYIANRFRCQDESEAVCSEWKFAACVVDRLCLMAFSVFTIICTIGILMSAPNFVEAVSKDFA
Test Details: Chronic desensitization (16 h agonist, then ACh response) and calculated smoldering activation, α7 cell line
Format: cell-based
Set-up: expressed in transfected cells; grown in VPA and PBA
Quantity Kind: pIC50
// pIC50 is dimensionless: -log10 of concentration (M)

GET pIC50 where system = α7 AChRs (Homo sapiens, UniProt P36544) and item = O=c1cccc2n1C[C@@H]1CNC[C@H]2C1 [Cytisine, cytisine]
5.38

---

Measurement Target: human α4β2 AChRs (Homo sapiens, UniProt P17787+P43681)
Construct: expressed in transfected cells
Test Details: Chronic desensitization (16 h agonist, then ACh response) and calculated smoldering activation, α4β2 cell line
Type: cell-based
Conditions Used: α4β2: 100 µM ACh (both stoichiometries)
Quantity Kind: Intercept of Activation and Desensitization Curves (µM)
Number only, in µM; omit the unit.

Solved entries:
CN1CCC[C@H]1c1cccnc1 | 1.82
O=c1cccc2n1C[C@@H]1CNC[C@H]2C1 | 0.74
OCCCCC#Cc1cncc(OC[C@@H]2CCN2)c1 | 0.002

// below: Intercept of Activation and Desensitization Curves requested for another compound
GET Intercept of Activation and Desensitization Curves where system = human α4β2 AChRs (Homo sapiens, UniProt P17787+P43681) and item = c1cnc2cc3c(cc2n1)[C@@H]1CNC[C@H]3C1
0.93
